All figures here come from paper PMC5540273.

- System: IRAK3
- assay-context: concentration: 1 μM, replicates: in singlicate; n = 1;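 also: KINOMEscan kinase panel screen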
Below, each of the molecules is paired with its reported %Inh value.
quantity-measured: %Inh (%)

1) COCCNC(=O)c1ccc(-c2cc(C(=O)NC3CC3)cc(F)c2C)cc1
23
2) O=c1cc(N2CCOCC2)nc2n(Cc3cccc4ccccc34)ccn12
0
3) CN(C1=C(c2ccccc2)C(=O)NC1=O)c1ccccc1
0
4) O=C(NOCC1CC1)c1ccc(F)c(F)c1Nc1ccc(I)cc1Cl
0
5) Cc1cccc(-c2nc(Nc3ccc4ncsc4c3)c3ccccc3n2)n1
0
6) Cc1cccc(Cn2ccn3c(=O)cc(N4CCOCC4)nc23)c1
20
7) O=C(Nc1cccc(-c2nn3ncccc3c2-c2ccnc(Nc3cccc(C(F)(F)F)c3)n2)c1)c1c(F)cccc1F
0
8) Nc1nc(-c2ccc3c(N)n[nH]c3c2)cc(N2CCCC2)n1
0
9) NS(=O)(=O)CCc1cccc(Nc2nccc(-c3c(-c4cccc(NC(=O)c5c(F)cccc5F)c4)nn4ccccc34)n2)c1
16
10) CCc1nc(-c2cccc(C)c2)c(-c2ccnc(NCc3ccccc3)c2)s1
0
11) Cn1cc(-c2ccc3c(c2)CCN3C(=O)Cc2ccccc2Cl)c2c(N)ncnc21
32

###

- System: TLK2
- assay-context: concentration: 1 μM, replicates: in singlicate; n = 1
quantity-measured: %Inh (%)

1) COc1ccc(Nc2ncc(C#N)c(Nc3ccccc3C(N)=O)n2)cc1N1CCN(C)CC1.Cl [GSK1558669]
99.6
2) COCCNC(=O)c1ccc(-c2cc(C(=O)NC3CC3)cc(F)c2C)cc1 [GW868318]
0
3) N#Cc1c(N2CCOCC2)sc(-c2ccn[nH]2)c1-c1ccc(Cl)cc1
0
4) COc1cc2ncn(-c3cc(OCc4sccc4Cl)c(C(N)=O)s3)c2cc1OC [GSK448459]
0
5) O=C(NOCC1CC1)c1ccc(F)c(F)c1Nc1ccc(I)cc1Cl
0
6) O=C(c1ccc(-c2cc(-c3c[nH]nc3-c3ccccn3)ccn2)cc1)N1CCOCC1 [GW812171]
13
7) COc1ccc(S(=O)(=O)NC2CCN(c3cc(C)nc(Nc4cccc(C#N)c4)n3)CC2)cc1.O=C(O)C(F)(F)F [GSK1653539]
0
8) O=C(Nc1cccc(-c2nn3ncccc3c2-c2ccnc(Nc3cccc(C(F)(F)F)c3)n2)c1)c1c(F)cccc1F [GSK299495]
0

###

- Test system: ERBB3
- assay-context: concentration: 1 μM, replicates: in singlicate; n = 1
Recorded measurements of %Inh, one per entry
quantity-measured: %Inh (%)

1) CN1c2ccc(NCc3ccc(F)cc3)cc2-c2c(cnn2C)S1(=O)=O
27
2) Cl.Nc1ncnc2occ(-c3ccc(NC(=O)Nc4cc(C(F)(F)F)ccc4F)cc3)c12
24
3) CC(=O)Nc1ccc(COc2ccc(Nc3ccnc4cc(-c5ccccn5)ccc34)cc2)cc1.Cl
0
4) COc1cc2ncn(-c3cc(OCc4sccc4Cl)c(C(N)=O)s3)c2cc1OC
0
5) NS(=O)(=O)c1cccc(-c2ccc3nccc(-c4cccc(S(N)(=O)=O)c4)c3c2)c1
0
6) Cn1ccc2ncnc(Oc3ccc(NC(=O)Nc4ccncc4)c(Cl)c3)c21
0
7) O=c1cc(N2CCOCC2)nc2n(Cc3cccc(F)c3)ccn12
0
8) Cc1c2ccc(N(C)c3ccnc(Nc4cccc(S(N)(=O)=O)c4)n3)cc2nn1Cc1ccccc1.Cl.Cl
0
